- System: Proteus vulgaris
- method.notes: Compound was tested for its minimal inhibitory concentration against Proteus vulgaris IAM 1025
- Assay type: functional
What MIC was measured for each of the following?
// return numeric value only (unit: µg/mL, not printed)

Prompt: Quick check: MIC of "C[C@@H](O)[C@H]1C(=O)N2C(C(=O)O)=C(SCCNC=N)C[C@H]12.O" ?
Response: 3.13

Prompt: Please look up its MIC: "C[C@@H](O)[C@H]1C(=O)N2C(C(=O)O)=C(/C=C/[C@@H]3CCCN3)C[C@H]12"
Response: 1.56

Prompt: State the recorded MIC for this entry: "C[C@@H](O)[C@H]1C(=O)N2C(C(=O)O)=C(/C=C/[C@@H]3CCCN3)[C@H](C)[C@H]12"
Response: 6.25

Prompt: Need MIC, item "C/C(=C\[C@@H]1CCCN1)C1=C(C(=O)O)N2C(=O)[C@H]([C@@H](C)O)[C@H]2C1"
Response: 1.56

Prompt: State the recorded MIC for this entry: "CSC/C(=C\[C@@H]1CCCN1)C1=C(C(=O)O)N2C(=O)[C@H]([C@@H](C)O)[C@H]2C1"
Response: 3.13

Prompt: Quick check: MIC of "COC/C(=C\[C@@H]1CCCN1)C1=C(C(=O)O)N2C(=O)[C@H]([C@@H](C)O)[C@H]2C1" ?
Response: 50

----------
- Tested on: Escherichia coli
- method.notes: Compound was tested for its minimal inhibitory concentration against Escherichia coli NIHJ JC-2
- Assay type: functional
Exercise: for every item that follows, state its recorded MIC.
Please answer in the form of a number followed by its unit of measurement.

Prompt: Give the reported MIC for "CSC/C(=C\[C@@H]1CCCN1)C1=C(C(=O)O)N2C(=O)[C@H]([C@@H](C)O)[C@H]2C1" (system: Escherichia coli).
Response: 0.78 µg/mL

Prompt: Lab note: need MIC for "C/C(=C\[C@@H]1CCCN1)C1=C(C(=O)O)N2C(=O)[C@H]([C@@H](C)O)[C@H]2C1" on Escherichia coli, anyone have it?
Response: 0.39 µg/mL

Prompt: Return MIC measured with Escherichia coli given this molecule: "C[C@@H](O)[C@H]1C(=O)N2C(C(=O)O)=C(/C(=C/[C@@H]3CCCN3)CN)C[C@H]12"
Response: 100 µg/mL

Prompt: # get_value(readout= MIC, system= Escherichia coli) for C[C@@H](O)[C@H]1C(=O)N2C(C(=O)O)=C(SCCNC=N)C[C@H]12.O [IMIPENEM]
Response: 0.78 µg/mL

Prompt: Give recorded MIC with Escherichia coli for the following molecule: "C[C@@H](O)[C@H]1C(=O)N2C(C(=O)O)=C(/C=C/[C@@H]3CCCN3)C[C@H]12"
Response: 1.56 µg/mL

Prompt: Write down the reported MIC of "C[C@@H](O)[C@H]1C(=O)N2C(C(=O)O)=C(/C=C/[C@@H]3CCCN3)[C@H](C)[C@H]12" , test system: Escherichia coli.
Response: 0.78 µg/mL

Prompt: Write down the reported MIC of "COC/C(=C\[C@@H]1CCCN1)C1=C(C(=O)O)N2C(=O)[C@H]([C@@H](C)O)[C@H]2C1" , test system: Escherichia coli.
Response: 0.78 µg/mL

----------
- measured.on: Dipeptidase 1 (Sus scrofa)
- method.notes: Susceptibility relative to imipenem was measured against Swine renal Dehydropeptidase-1
Criterion: Susceptibility strictly under 0.2. Met: MET. Not met: NOT MET.

Prompt: Please let me know if "C[C@@H](O)[C@H]1C(=O)N2C(C(=O)O)=C(/C(=C/[C@@H]3CCCN3)CN)C[C@H]12" shows Susceptibility below 0.2.
Response: MET

Prompt: # check: Susceptibility < 0.2 for "CSC/C(=C\[C@@H]1CCCN1)C1=C(C(=O)O)N2C(=O)[C@H]([C@@H](C)O)[C@H]2C1"
Response: MET

Prompt: Identify whether the compound "COC/C(=C\[C@@H]1CCCN1)C1=C(C(=O)O)N2C(=O)[C@H]([C@@H](C)O)[C@H]2C1" records Susceptibility below 0.2.
Response: MET

Prompt: Input "C[C@@H](O)[C@H]1C(=O)N2C(C(=O)O)=C(/C=C/[C@@H]3CCCN3)[C@H](C)[C@H]12" ; condition: Susceptibility strictly below 0.2. Does it hold?
Response: MET

Prompt: is_below(Susceptibility, 0.2) for "C[C@@H](O)[C@H]1C(=O)N2C(C(=O)O)=C(/C=C/[C@@H]3CCCN3)C[C@H]12" ?
Response: NOT MET

Prompt: Item C[C@@H](O)[C@H]1C(=O)N2C(C(=O)O)=C(SCCNC=N)C[C@H]12.O [IMIPENEM] : Susceptibility beneath 0.2, strictly?
Response: NOT MET

Prompt: Find out if reported Susceptibility for "C/C(=C\[C@@H]1CCCN1)C1=C(C(=O)O)N2C(=O)[C@H]([C@@H](C)O)[C@H]2C1" is less than 0.2
Response: MET
